This collection of values is drawn from ChEMBL document CHEMBL4000141.

Values of pKi reported for Carbonic anhydrase 9 (Homo sapiens, UniProt Q16790) appear below.
pKi: −log10 of the molar value.
recordedEndpoint: pKi

{"compound": "CCOC(=O)[C@@H]1C[C@@H]1Cc1cc(OC)c(OC)cc1Br", "testSystem": "Carbonic anhydrase 9 (Homo sapiens, UniProt Q16790)", "recordedEndpoint": "pKi", "result": 6.00}

1. COc1ccc(C[C@H]2C[C@H]2CO)cc1OC
2. COc1ccc(C[C@@H]2C[C@H]2C(=O)O)cc1OC
Input: Which value of pKi is numerically greater: that of 1 or that of 2 ? Pick one; state its label.
Output: 2
(2: 5.96, 1: 5.31)

====

# testSystem: Carbonic anhydrase 12 (Homo sapiens)
# Sequence (O43570 whole entry): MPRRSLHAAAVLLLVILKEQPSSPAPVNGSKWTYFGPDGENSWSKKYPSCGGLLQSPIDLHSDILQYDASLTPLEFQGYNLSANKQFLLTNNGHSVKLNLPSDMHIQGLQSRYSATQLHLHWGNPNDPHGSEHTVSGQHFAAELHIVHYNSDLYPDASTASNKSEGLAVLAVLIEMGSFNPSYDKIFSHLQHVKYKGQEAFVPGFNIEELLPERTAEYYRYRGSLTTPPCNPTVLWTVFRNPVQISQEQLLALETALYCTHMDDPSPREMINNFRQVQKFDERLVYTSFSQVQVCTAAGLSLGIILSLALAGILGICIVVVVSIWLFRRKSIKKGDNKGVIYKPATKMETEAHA
recordedEndpoint: Ki

Input: Enter recorded Ki with Carbonic anhydrase 12 (Homo sapiens) for `COc1cc(Br)c(C[C@@H]2C[C@H]2C(=O)O)c(Br)c1OC` here.
Output: > 50 µM
